Tested on: E. coli MC4100
procedure.details: Minimal inhibitory concentration, E. coli MC4100
Assay type: cell-based
assay.setup: 16 hour minimal inhibitory concentration at 37° C.; read-out: MIC (μM) E. coli MC4100 ara+
Documented MIC across a set of compounds
I only need the number, in µM, no unit after it.

molecule.smiles	MIC, µM
CO[C@@H]1[C@@H](OC(N)=O)[C@@H](O)[C@H](Oc2ccc3c(O)c(NC(=O)c4ccc(O)c(-c5ccc6ccccc6c5)c4)c(=O)oc3c2C)OC1(C)C	150

Identify measured MIC obtained with E. coli MC4100 for `CO[C@@H]1[C@@H](OC(N)=O)[C@@H](O)[C@H](Oc2ccc3c(O)c(NC(=O)c4cccc(-c5cccc(OC(F)(F)F)c5)c4)c(=O)oc3c2C)OC1(C)C` .
89

====

Documented MIC across a set of compounds
Tested on: E. coli MC4100
procedure.details: Minimal inhibitory concentration, E. coli MC4100
Assay type: cell-based
assay.setup: 16 hour minimal inhibitory concentration at 37° C.; read-out: MIC (μM) E. coli MC4100 ara+

Example entries begin here.
compound	MIC
CCc1ccc(-c2cccc(C(=O)Nc3c(O)c4ccc(O[C@@H]5OC(C)(C)[C@H](OC)[C@@H](OC(N)=O)[C@H]5O)c(C)c4oc3=O)c2)cc1 [Compound 54]	40 µM
CO[C@@H]1[C@@H](OC(N)=O)[C@@H](O)[C@H](Oc2ccc3c(O)c(NC(C)=O)c(=O)oc3c2C)OC1(C)C [Compound 102]	>200 µM

Provide one value: measured MIC of CO[C@@H]1[C@@H](OC(N)=O)[C@@H](O)[C@H](Oc2ccc3c(O)c(NC(=O)c4cc(-c5ccc6ccccc6c5)cc(O)c4O)c(=O)oc3c2C)OC1(C)C [Compound 98]
>200 µM

Provide one value: measured MIC of CO[C@@H]1[C@@H](OC(N)=O)[C@@H](O)[C@H](Oc2ccc3c(O)c(NC(=O)c4cccc(-c5ccc(OC(F)(F)F)cc5)c4)c(=O)oc3c2C)OC1(C)C [Compound 57]
>200 µM

Provide one value: measured MIC of CO[C@@H]1[C@@H](OC(N)=O)[C@@H](O)[C@H](Oc2ccc3c(O)c(NC(=O)c4cccc5ccn(C)c45)c(=O)oc3c2C)OC1(C)C [Compound 74]
>200 µM

Provide one value: measured MIC of CO[C@@H]1[C@@H](OC(N)=O)[C@@H](O)[C@H](Oc2ccc3c(O)c(NC(=O)c4cccc(C5CCCCC5)c4)c(=O)oc3c2C)OC1(C)C [Compound 62]
59 µM

====

System: S. aureus MW2
procedure.details: Minimal inhibitory concentration, S. aureus MW2
Assay type: cell-based
assay.setup: Staphylococcus aureus, MRSA, 16 h, 16 hour minimal inhibitory concentration at 37° C.; read-out: MIC (μM) S. aureus MW2 (MRSA)
Documented MIC across a set of compounds
I only need the number, in µM, no unit after it.

Example entries begin here.
compound	MIC [µM]
CO[C@@H]1[C@@H](OC(N)=O)[C@@H](O)[C@H](Oc2ccc3c(O)c(NC(=O)c4ccc(-c5ccccc5)cc4)c(=O)oc3c2C)OC1(C)C [Compound 2]	21
CO[C@@H]1[C@@H](OC(N)=O)[C@@H](O)[C@H](Oc2ccc3c(O)c(NC(=O)c4cccc(-c5ccccc5Br)c4)c(=O)oc3c2C)OC1(C)C [Compound 235]	5
CO[C@@H]1[C@@H](OC(N)=O)[C@@H](O)[C@H](Oc2ccc3c(O)c(NC(=O)c4cccc(-c5ccc(N(C)C)cc5)c4)c(=O)oc3c2C)OC1(C)C [Compound 25]	0.96

Provide one value: measured MIC of CO[C@@H]1[C@@H](OC(N)=O)[C@@H](O)[C@H](Oc2ccc3c(O)c(NC(=O)/C=C/c4ccccc4)c(=O)oc3c2C)OC1(C)C [Compound 27]
23

Provide one value: measured MIC of COc1ccc(C(=O)Nc2c(O)c3ccc(O[C@@H]4OC(C)(C)[C@H](OC)[C@@H](OC(N)=O)[C@H]4O)c(C)c3oc2=O)cc1OC [Compound 9]
43

====

System: S. aureus MW2
procedure.details: Minimal inhibitory concentration, S. aureus MW2
Type: cell-based
assay.setup: 16 hour minimal inhibitory concentration at 37° C.; read-out: MIC (μM) S. aureus MW2 (MRSA)
property: log10 MIC (log10 of the value in µM)
Annotation: log10 of MIC, µM basis.

compound	log10 MIC
CO[C@@H]1[C@@H](OC(N)=O)[C@@H](O)[C@H](Oc2ccc3c(O)c(NC(=O)c4cc(-c5ccccc5)c(O)cc4O)c(=O)oc3c2C)OC1(C)C [Compound 67]	0.70
COc1ccccc1-c1cccc(C(=O)Nc2c(O)c3ccc(O[C@@H]4OC(C)(C)[C@H](OC)[C@@H](OC(N)=O)[C@H]4O)c(C)c3oc2=O)c1 [Compound 50]	1.00
CO[C@@H]1[C@@H](OC(N)=O)[C@@H](O)[C@H](Oc2ccc3c(O)c(NC(=O)c4cc(O)cc(-c5ccccc5)c4)c(=O)oc3c2C)OC1(C)C [Compound 78]	0.60
CO[C@@H]1[C@@H](OC(N)=O)[C@@H](O)[C@H](Oc2ccc3c(O)c(NC(=O)c4ccc(CCc5ccccc5)cc4)c(=O)oc3c2C)OC1(C)C [Compound 77]	0.70
CO[C@@H]1[C@@H](OC(N)=O)[C@@H](O)[C@H](Oc2ccc3c(O)c(NC(=O)c4cccc(-c5cccc(C(C)C)c5)c4)c(=O)oc3c2C)OC1(C)C [Compound 61]	-0.72

Now examine the next entry.
Provide one value: measured log10 MIC of COc1cccc(-c2cccc(C(=O)Nc3c(O)c4ccc(O[C@@H]5OC(C)(C)[C@H](OC)[C@@H](OC(N)=O)[C@H]5O)c(C)c4oc3=O)c2)c1 [Compound 103]
1.56

====

Tested on: S. aureus RN4220
procedure.details: Minimal inhibitory concentration, S. aureus RN4220
Format: cell-based
assay.setup: 16 hour minimal inhibitory concentration at 37° C.; read-out: MIC (μM) S. aureus RN4220
property: log10(MIC) (log10 of the value in µM)
Annotation: log10 of MIC, µM basis.

compound	log10(MIC)
CO[C@@H]1[C@@H](OC(N)=O)[C@@H](O)[C@H](Oc2ccc3c(O)c(NC(=O)c4cccc(-c5cccc(C(C)C)c5)c4)c(=O)oc3c2C)OC1(C)C [Compound 61]	-0.41
CO[C@@H]1[C@@H](OC(N)=O)[C@@H](O)[C@H](Oc2ccc3c(O)c(NC(=O)c4cccc(-c5cccc(O)c5O)c4)c(=O)oc3c2C)OC1(C)C [Compound 99]	1.90
CO[C@@H]1[C@@H](OC(N)=O)[C@@H](O)[C@H](Oc2ccc3c(O)c(NC(=O)c4cccc(-c5ccccc5N)c4)c(=O)oc3c2C)OC1(C)C [Compound 65]	1.91

Provide one value: measured log10(MIC) of CO[C@@H]1[C@@H](OC(N)=O)[C@@H](O)[C@H](Oc2ccc3c(O)c(NC(=O)c4ccc(O)c(-c5cccc6ccccc56)c4)c(=O)oc3c2C)OC1(C)C [Compound 93]
1.57

Provide one value: measured log10(MIC) of CO[C@@H]1[C@@H](OC(N)=O)[C@@H](O)[C@H](Oc2ccc3c(O)c(NC(=O)c4cccc(-c5cccc(C(F)(F)F)c5)c4)c(=O)oc3c2C)OC1(C)C [Compound 56]
-0.13

====

System: S. aureus RN4220
procedure.details: Minimal inhibitory concentration, S. aureus RN4220
Format: cell-based
assay.setup: 16 hour minimal inhibitory concentration at 37° C.; read-out: MIC (μM) S. aureus RN4220
Documented MIC across a set of molecules

Example entries begin here.
molecule	MIC
CCNC(=O)O[C@H]1[C@H](Oc2ccc3c(O)c(NC(=O)c4ccc(O)c(CC=C(C)C)c4)c(=O)oc3c2C)OC(C)(C)[C@H](OC)[C@H]1O [Compound 104]	2 µM
CO[C@@H]1[C@@H](OC(N)=O)[C@@H](O)[C@H](Oc2ccc3c(O)c(NC(=O)c4ccc5c(ccn5C)c4)c(=O)oc3c2C)OC1(C)C [Compound 72]	86 µM

Provide one value: measured MIC of CO[C@@H]1[C@@H](OC(N)=O)[C@@H](O)[C@H](Oc2ccc3c(O)c(NC(=O)c4cc(O)cc(-c5ccccc5)c4)c(=O)oc3c2C)OC1(C)C [Compound 78]
5 µM

Provide one value: measured MIC of CO[C@@H]1[C@@H](OC(N)=O)[C@@H](O)[C@H](Oc2ccc3c(O)c(NC(=O)c4cc5ccccc5[nH]4)c(=O)oc3c2C)OC1(C)C [Compound 16]
>100 µM

Provide one value: measured MIC of CO[C@@H]1[C@@H](O)[C@@H](OC(=O)c2ccc[nH]2)[C@H](Oc2ccc3c(O)c(NC(=O)c4ccc(O)c(CC=C(C)C)c4)c(=O)oc3c2C)OC1(C)C [Compound 113]
0.5 µM

Provide one value: measured MIC of COc1ccccc1-c1cccc(C(=O)Nc2c(O)c3ccc(O[C@@H]4OC(C)(C)[C@H](OC)[C@@H](OC(N)=O)[C@H]4O)c(C)c3oc2=O)c1 [Compound 50]
19 µM
